Here the recorded Activity is given for each entry.
- TARGET_OR_TEST_SYSTEM: Transient receptor potential cation channel subfamily V member 1 (Rattus norvegicus) (UniProt O35433)
- Sequence (O35433 whole entry): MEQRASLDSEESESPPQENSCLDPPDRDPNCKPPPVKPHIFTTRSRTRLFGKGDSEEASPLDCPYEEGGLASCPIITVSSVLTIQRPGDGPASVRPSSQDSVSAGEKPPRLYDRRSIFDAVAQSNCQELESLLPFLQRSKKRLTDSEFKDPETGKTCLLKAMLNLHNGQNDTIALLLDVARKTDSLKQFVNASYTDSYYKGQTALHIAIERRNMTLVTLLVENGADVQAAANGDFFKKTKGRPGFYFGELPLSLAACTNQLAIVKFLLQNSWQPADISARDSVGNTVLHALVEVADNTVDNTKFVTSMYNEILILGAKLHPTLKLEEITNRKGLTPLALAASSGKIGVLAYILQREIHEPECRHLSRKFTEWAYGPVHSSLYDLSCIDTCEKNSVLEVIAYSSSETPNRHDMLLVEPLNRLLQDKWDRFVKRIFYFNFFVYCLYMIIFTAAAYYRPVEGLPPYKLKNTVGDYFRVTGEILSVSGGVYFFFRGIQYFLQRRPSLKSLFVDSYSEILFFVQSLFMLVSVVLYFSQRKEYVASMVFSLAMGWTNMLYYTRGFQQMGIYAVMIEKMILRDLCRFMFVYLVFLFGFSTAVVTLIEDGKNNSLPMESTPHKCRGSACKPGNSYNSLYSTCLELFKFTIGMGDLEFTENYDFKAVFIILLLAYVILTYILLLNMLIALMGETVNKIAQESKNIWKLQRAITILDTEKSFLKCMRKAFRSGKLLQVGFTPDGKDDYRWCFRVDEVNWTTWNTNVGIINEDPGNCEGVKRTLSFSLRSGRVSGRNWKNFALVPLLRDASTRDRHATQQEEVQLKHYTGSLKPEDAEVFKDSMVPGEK
- TEST_METHOD_NOTES: Agonist activity at rat TRPV1 expressed in CHO cells assessed as increase of capsaicin-induced calcium uptake relative to capsaicin
- Format: functional, cell-based
TEST_READOUT: Activity (%)

> print(dat)
                                   compound  quantitative.result
1  COc1cc(CC(=O)NCc2ccc(C(C)(C)C)cc2)cc(Cl)c1O                   25
2  COc1cc(CC(=O)NCC(COC(=O)C(C)(C)C)Cc2ccc(C(C)(C)C)cc2)cc(Cl)c1O (stereo not given)                   25
3  CC(C)(C)C(=O)OCC(CNC(=O)Cc1ccc(N)c(Cl)c1)Cc1ccc(C(C)(C)C)cc1 (stereo not given)                   85
4  COc1cc(CC(=O)NCc2ccc(C(C)(C)C)cc2)cc(Br)c1OC(C)=O                    9
5  COc1cc(CC(=O)NCC(COC(=O)C(C)(C)C)Cc2ccc(C)c(C)c2)c(I)cc1O (stereo not given)                   23

Where these numbers come from: ChEMBL document CHEMBL1275346
